# testedTarget: CDK2/Cyclin E1 (Homo sapiens)
# Construct: purchased 14-475
# protocolSummary: Caliper Assay (LabChip EZ Reader mobility shift assay), inhibition of CDK2/Cyclin E1 activity
# Assay type: biochemical
# conditionDescription: 2.5 nM CDK2/Cyclin E1(14-475), 100 μM ATP, 30 min preincubation; read-out: Caliper Assay (CDK2/CCNE1): IC50
# key: entry, value: IC50

Answered cases to consult:
- compound: "O=C(c1cncs1)N1CC(c2nnc(C(F)(F)c3ccc(Cl)c(Cl)c3)o2)C2(C1)CN(C(=O)C1CNC1)C2 (stereo not shown) [I-173]"
  testedTarget: "CDK2/Cyclin E1 (Homo sapiens)"
  observed: "> 10 µM"
- compound: "CC1(C)C[C@@H]1C(=O)N1CC2(C1)CN(c1ncnc3ncsc13)CC2c1nnc(C(F)(F)c2ccc(Cl)c(Cl)c2)o1 (stereo partly shown) [I-192]"
  testedTarget: "CDK2/Cyclin E1 (Homo sapiens)"
  observed: "1 to 10 µM"
- compound: "CC(C)(C#N)C(=O)N1CC2(CN(C(=O)c3cn[nH]c3)CC2c2nnc(C(F)(F)c3ccc(Cl)c(Cl)c3)o2)C1 (stereo not shown) [I-177]"
  testedTarget: "CDK2/Cyclin E1 (Homo sapiens)"
  observed: "> 10 µM"

Proceeding to the next compound to report its IC50.
(Q) Could you please provide reported IC50 for O=C(c1cncs1)N1CC(c2nnc(C(F)(F)c3ccc(Cl)c(Cl)c3)o2)C2(C1)CN(C(=O)N1CCC1)C2 (stereo not shown) [I-186] ? Thanks!
(A) > 10 µM

====

# testedTarget: CDK2/Cyclin E1 (Homo sapiens, UniProt P24941)
# Construct: purchased 14-475
# protocolSummary: Caliper Assay (LabChip EZ Reader mobility shift assay), inhibition of CDK2/Cyclin E1 activity
# Assay type: biochemical
# conditionDescription: 2.5 nM CDK2/Cyclin E1(14-475), 100 μM ATP, 30 min preincubation; read-out: Caliper Assay (CDK2/CCNE1): IC50
pIC50: −log10 of the molar value.
measurementLabel: pIC50

Known pIC50 results, listed for orientation:
- molecule: "CC1(C)C[C@@H]1C(=O)N1CC2(CN(C(=O)c3cncs3)CC2c2nnc(C(F)(F)c3ccc(C#N)cc3)o2)C1 (some centres unmarked) [I-72]"
  observed: "5.00 to 6.00"
- molecule: "O=C(c1cncs1)N1CC(c2nnc(C(F)(F)c3ccc(Cl)c(Cl)c3)o2)C2(C1)CN(C(=O)[C@@H]1CCCO1)C2 (some centres unmarked) [I-164]"
  observed: "< 5.00"
- molecule: "O=C(c1cncs1)N1CC(c2nnc(Cc3ccc(Cl)c(Cl)c3)o2)C2(C1)CN(c1nc3ccccc3o1)C2 (centres unmarked) [I-41]"
  observed: "< 5.00"
- molecule: "CC(C)(O)C(=O)N1CC2(CN(C(=O)c3cncs3)CC2c2nnc(C(F)(F)c3ccc(Cl)c(Cl)c3)o2)C1 (centres unmarked) [I-178]"
  observed: "< 5.00"

(Q) State its pIC50 for this molecule: CC(=O)N1CC(c2nnc(C(F)(F)c3ccc(Cl)c(Cl)c3)o2)C2(C1)CN(C(C)=O)C2 (centres unmarked) [I-204]
(A) < 5.00

(Q) Supply pIC50 value. Item: O=C(c1cc(C(F)(F)F)n[nH]1)N1CC(c2nnc(C(F)(F)c3ccc(Cl)c(Cl)c3)o2)C2(C1)CN(C(=O)[C@H]1CC1(F)F)C2 (some centres unmarked) [I-161]
(A) < 5.00

(Q) Please supply the value of reported pIC50 for the item CC(c1nc(C2CN(C(=O)c3cncs3)CC23CN(C(=O)[C@H]2CC2(C)C)C3)no1)n1ccc(C2CCOCC2)n1 (some centres unmarked) [I-82]
(A) 6.00 to 7.00

(Q) Note pIC50 for the molecule shown: COc1ccc(C2CCOCC2)nc1Cc1nnc(C2CN(C(=O)c3cncs3)CC23CN(C(=O)[C@H]2CC2(C)C)C3)o1 (some centres unmarked) [I-55]
(A) 6.00 to 7.00

====

# testedTarget: CDK2/Cyclin E1 (Homo sapiens)
# Construct: purchased 14-475
# protocolSummary: Caliper Assay (LabChip EZ Reader mobility shift assay), inhibition of CDK2/Cyclin E1 activity
# Type: biochemical
# conditionDescription: 2.5 nM CDK2/Cyclin E1(14-475), 100 μM ATP, 30 min preincubation; read-out: Caliper Assay (CDK2/CCNE1): IC50
# IC50 values compiled below

Some entries whose results are on file:
- compound: "CC1(C)C[C@@H]1C(=O)N1CC2(CN(C(=O)c3cncs3)CC2c2nnc(Cc3ccc4c(c3)CCCO4)o2)C1 (stereo partly drawn) [I-71]"
  IC50: "1 to 10 µM"
- compound: "O=C(C1CCNCC1)N1CC(c2nnc(C(F)(F)c3ccc(Cl)c(Cl)c3)o2)C2(C1)CN(C(=O)[C@H]1CC1(F)F)C2 (stereo partly drawn) [I-150]"
  IC50: "> 10 µM"
- compound: "O=C(C1CNC1)N1CC(c2nnc(C(F)(F)c3ccc(Cl)c(Cl)c3)o2)C2(C1)CN(C(=O)[C@H]1CC1(F)F)C2 (stereo partly drawn) [I-147]"
  IC50: "> 100 µM"
- compound: "CC1(C)C[C@@H]1C(=O)N1CC2(CN(C(=O)c3cncnc3)CC2c2nnc(C(F)(F)c3ccc(Cl)c(Cl)c3)o2)C1 (stereo partly drawn) [I-56]"
  IC50: "1 to 10 µM"

(Q) Assign IC50 to the following record: C=C(c1ccc(C(F)(F)c2nnc(C3CN(C(=O)c4cncs4)CC34CN(C(=O)[C@H]3CC3(C)C)C4)o2)cc1)C(F)(F)F (stereo partly drawn) [I-198]
(A) 0.01 to 0.1 µM

(Q) Give the reported IC50 for this compound. CC1(C)C[C@@H]1C(=O)N1CC2(CN(C(=O)c3cncs3)CC2c2nnc(C3(c4ccc(Cl)c(Cl)c4)CC(O)C3)o2)C1 (stereo partly drawn) [I-61]
(A) 0.01 to 0.1 µM

(Q) Using known records, supply IC50 for COc1ccccc1C(F)(F)c1nnc(C2CN(C(=O)c3cncs3)CC23CN(C(=O)[C@H]2CC2(C)C)C3)o1 (stereo partly drawn) [I-34]
(A) 1 to 10 µM

(Q) Fill in IC50 for record CC(c1nc(C2CN(C(=O)c3cnn(Cc4cc(F)c(C(=O)O)c(F)c4)c3)CC23CN(C(=O)[C@H]2CC2(C)C)C3)no1)n1ccc(C2CCCC2)n1 (stereo partly drawn) [I-130]
(A) 0.01 to 0.1 µM

(Q) Give IC50 for O=C(c1cncs1)N1CC(c2nnc(Cc3ccc(Cl)c(Cl)c3)o2)C2(C1)CN(c1ccccn1)C2 (stereo not drawn) [I-197]
(A) > 10 µM

====

# testedTarget: CDK2/Cyclin E1 (Homo sapiens, UniProt P24941)
# Construct: purchased 14-475
# protocolSummary: Caliper Assay (LabChip EZ Reader mobility shift assay), inhibition of CDK2/Cyclin E1 activity
# Type: biochemical
# conditionDescription: 2.5 nM CDK2/Cyclin E1(14-475), 100 μM ATP, 30 min preincubation; read-out: Caliper Assay (CDK2/CCNE1): IC50
pIC50: −log10 of the molar value.
measurementLabel: pIC50

Check out these entries, answers already filled in.
- compound: "CC1(C)C[C@@H]1C(=O)N1CC2(CN(C(=O)c3ccnnc3)CC2c2nnc(C(F)(F)c3ccc(Cl)c(Cl)c3)o2)C1 (stereo partly drawn)"
  testedTarget: "CDK2/Cyclin E1 (Homo sapiens, UniProt P24941)"
  pIC50: "5.00 to 6.00"
- compound: "CC1(C)C[C@@H]1C(=O)N1CC2(CN(C(=O)c3cnn(Cc4ccccc4)c3)CC2c2nnc(Cc3ccncc3)o2)C1 (stereo partly drawn)"
  testedTarget: "CDK2/Cyclin E1 (Homo sapiens, UniProt P24941)"
  pIC50: "6.00 to 7.00"

Please examine the following record next.
(Q) Report pIC50 for O=C(C1COC1)N1CC(c2nnc(C(F)(F)c3ccc(Cl)c(Cl)c3)o2)C2(C1)CN(C(=O)[C@H]1CC1(F)F)C2 (stereo partly drawn)
(A) < 5.00
